- System: Toxoplasma gondii RH (in HFF)
- Run description: parasite growth relative to the screen mean (all compounds = 100%); higher = less inhibition of parasite growth
- Conditions used: 5 µM; 72 h; oxygen 21 %
Where a name gives a salt, the structure may show the parent alone.
Kindly supply the reported parasite growth values for the records listed here.
Numbers only, in %.

Worked cases, answers included:
Molecule	Tested system	parasite growth / %
N[C@@H](Cc1cc(-c2ccc(Cl)cc2Cl)cc(CP(=O)(O)O)c1O)C(=O)O	Toxoplasma gondii RH (in HFF)	127
CN1CCC(=C2c3ccccc3CC(=O)c3sccc32)CC1 [Ketotifen fumarate]	Toxoplasma gondii RH (in HFF)	54.3

I'm hoping you can list parasite growth for every molecule here, please.
1. COc1cc(N)c(Cl)cc1C(=O)CCC1CCN(CCNS(C)(=O)=O)CC1
2. CN(C)[C@@H]1CCc2[nH]c3ccc(NC(=O)c4ccc(F)cc4)cc3c2C1
3. NCCCCCc1c[nH]cn1 [Impentamine dihydrobromide]
4. C[C@@H](CN1CCC(Cc2ccccc2)CC1)[C@@H](O)c1ccc(O)cc1 [Ro 25-6981 maleate]
5. CC(C)NCCN(C(C)C)S(=O)(=O)c1ccc(Cl)cc1Cl
6. Oc1ccc(/C=C/c2cc(O)cc(O)c2)cc1
7. CCCCCCN(CCCCCC)C(=O)Cc1c(-c2ccc(Cl)cc2)[nH]c2ccc(Cl)cc12

**Result**
74.1
124
132
121
142
112
175

I'm hoping you can list parasite growth for every molecule here, please.
1. CC(C)(Oc1ccc(Cl)cc1)C(=O)O
2. CC(C(O)c1ccc(O)cc1)N1CCC(Cc2ccccc2)CC1 (centres undefined) [Ifenprodil hemitartrate]
3. O=C(O)C1=CCNCC1 [Isoguvacine hydrochloride]
4. COc1cc(C(=O)OCCCN2CCCN(CCCOC(=O)c3cc(OC)c(OC)c(OC)c3)CC2)cc(OC)c1OC [Dilazep dihydrochloride]
5. COC(=O)C1=C(C)NC(C)=C([N+](=O)[O-])[C@H]1c1ccccc1C(F)(F)F
6. O=C1NC(c2cccc([N+](=O)[O-])c2)=CCN1c1ccccc1O

**Result**
[127, 116, 130, 54.3, 153, 128]

I'm hoping you can list parasite growth for every molecule here, please.
1. CC(C)NC[C@H](O)COc1cccc2[nH]ccc12 [(S)-(-)-Pindolol]
2. C[N+](C)(C)CCCCCNCC12CC3CC(CC(C3)C1)C2
3. COc1cc(SC)ccc1C(=O)N1CCC(Cc2ccccc2)CC1
4. O=C(NCCCCN1CCN(c2cccc(Cl)c2Cl)CC1)c1ccc2c(c1)Cc1ccccc1-2
5. O=c1oc(-c2ccc(C(F)(F)F)cc2)nn1Cc1cc(Cl)ccc1O

**Result**
1: 127; 2: 120; 3: 112; 4: 92.7; 5: 146

====

Kindly supply the reported parasite growth values for the records listed here.
- Tested on: Toxoplasma gondii RH (in HFF)
- Run description: parasite growth relative to the screen mean (all compounds = 100%); higher = less inhibition of parasite growth
- Conditions used: 5 µM; 72 h; oxygen 21 %
Counter-ions that a name gives are not always drawn.
One number for each entry, in %.

I'm hoping you can list parasite growth for every compound here, please.
1. CC12CC3CC(C)(C1)CC(N)(C3)C2 [Memantine hydrochloride]
2. COc1ccc(CCN(C)CCc2ccc(OC)c(OC)c2)cc1OC [YS-035 hydrochloride]
3. NC(=O)c1ccc2[nH]ccc2c1

**Result**
1: 123; 2: 136; 3: 91.2

Data provenance is the supplement of paper PMC4894684.
